target: rat mGlu5 (Rattus norvegicus (Rat), UniProt P31424); experiment: mGlu5 Ca2+ flux assay; type: cell-based; details: ratio of rat mGlu5 EC50 or IC50 to rat mGlu3 IC50
Sequence (P31424 21-1203): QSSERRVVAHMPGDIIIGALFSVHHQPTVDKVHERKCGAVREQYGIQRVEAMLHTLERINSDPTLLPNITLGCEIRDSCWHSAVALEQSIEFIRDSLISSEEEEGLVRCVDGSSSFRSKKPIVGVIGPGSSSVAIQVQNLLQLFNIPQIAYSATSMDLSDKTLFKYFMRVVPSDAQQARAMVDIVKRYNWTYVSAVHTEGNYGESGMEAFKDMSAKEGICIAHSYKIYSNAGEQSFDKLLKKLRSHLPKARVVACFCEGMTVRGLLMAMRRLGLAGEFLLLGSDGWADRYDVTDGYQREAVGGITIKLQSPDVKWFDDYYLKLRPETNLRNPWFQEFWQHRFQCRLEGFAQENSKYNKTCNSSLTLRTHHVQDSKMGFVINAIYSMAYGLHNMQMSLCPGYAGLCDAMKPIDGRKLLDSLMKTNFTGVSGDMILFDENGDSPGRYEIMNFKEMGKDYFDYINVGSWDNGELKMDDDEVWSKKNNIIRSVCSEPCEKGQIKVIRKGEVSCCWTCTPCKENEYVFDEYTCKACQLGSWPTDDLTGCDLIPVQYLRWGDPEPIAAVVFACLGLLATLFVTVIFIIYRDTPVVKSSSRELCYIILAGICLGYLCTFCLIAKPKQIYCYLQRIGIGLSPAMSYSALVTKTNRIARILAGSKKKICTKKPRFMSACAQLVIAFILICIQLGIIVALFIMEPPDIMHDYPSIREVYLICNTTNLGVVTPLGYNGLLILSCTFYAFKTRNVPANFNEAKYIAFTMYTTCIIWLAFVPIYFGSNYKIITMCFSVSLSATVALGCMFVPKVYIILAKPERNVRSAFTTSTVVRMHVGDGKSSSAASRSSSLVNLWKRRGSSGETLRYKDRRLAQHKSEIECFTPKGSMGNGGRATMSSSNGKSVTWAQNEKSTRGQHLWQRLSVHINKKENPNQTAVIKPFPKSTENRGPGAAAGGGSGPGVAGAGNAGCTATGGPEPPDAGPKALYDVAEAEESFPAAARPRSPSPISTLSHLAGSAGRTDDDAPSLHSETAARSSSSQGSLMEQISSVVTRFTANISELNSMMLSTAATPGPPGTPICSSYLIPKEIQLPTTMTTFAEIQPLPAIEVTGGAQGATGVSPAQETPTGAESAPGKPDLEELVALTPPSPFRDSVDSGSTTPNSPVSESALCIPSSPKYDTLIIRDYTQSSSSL

molecule: Cc1ccc(NCc2cc3n(n2)CCN(c2ccc(F)cc2)C3=O)nc1 [Compound 159]
Fold selectivity (mGlu3 vs. mGlu5): >16
//
molecule: CCc1ccc(NCc2cc3n(n2)CCN(c2ccc(F)cc2)C3=O)cc1 [Compound 22]
Fold selectivity (mGlu3 vs. mGlu5): >19
//
molecule: Cc1cccc(NCc2cc3n(n2)CCN(c2ccc(F)cc2)C3=O)c1 [Compound 8]
Fold selectivity (mGlu3 vs. mGlu5): 4.41
//
molecule: COc1ccc(NCc2cc3n(n2)[C@@H](C)CN(c2ccc(F)cc2)C3=O)cc1 [Compound 63]
Fold selectivity (mGlu3 vs. mGlu5): >3.5
//
molecule: CN(Cc1cc2n(n1)CCN(c1ccc(F)cc1)C2=O)c1ccccc1Cl [Compound 84]
Fold selectivity (mGlu3 vs. mGlu5): >5.3

====

target: rat mGlu3 (Rattus norvegicus (Rat)); experiment: mGlu3 Ca2+ flux assay; type: cell-based; details: Table 2 compounds with X = NH; response at 30 μM compound as percentage of maximal glutamate response
Sequence (P31422 23-879): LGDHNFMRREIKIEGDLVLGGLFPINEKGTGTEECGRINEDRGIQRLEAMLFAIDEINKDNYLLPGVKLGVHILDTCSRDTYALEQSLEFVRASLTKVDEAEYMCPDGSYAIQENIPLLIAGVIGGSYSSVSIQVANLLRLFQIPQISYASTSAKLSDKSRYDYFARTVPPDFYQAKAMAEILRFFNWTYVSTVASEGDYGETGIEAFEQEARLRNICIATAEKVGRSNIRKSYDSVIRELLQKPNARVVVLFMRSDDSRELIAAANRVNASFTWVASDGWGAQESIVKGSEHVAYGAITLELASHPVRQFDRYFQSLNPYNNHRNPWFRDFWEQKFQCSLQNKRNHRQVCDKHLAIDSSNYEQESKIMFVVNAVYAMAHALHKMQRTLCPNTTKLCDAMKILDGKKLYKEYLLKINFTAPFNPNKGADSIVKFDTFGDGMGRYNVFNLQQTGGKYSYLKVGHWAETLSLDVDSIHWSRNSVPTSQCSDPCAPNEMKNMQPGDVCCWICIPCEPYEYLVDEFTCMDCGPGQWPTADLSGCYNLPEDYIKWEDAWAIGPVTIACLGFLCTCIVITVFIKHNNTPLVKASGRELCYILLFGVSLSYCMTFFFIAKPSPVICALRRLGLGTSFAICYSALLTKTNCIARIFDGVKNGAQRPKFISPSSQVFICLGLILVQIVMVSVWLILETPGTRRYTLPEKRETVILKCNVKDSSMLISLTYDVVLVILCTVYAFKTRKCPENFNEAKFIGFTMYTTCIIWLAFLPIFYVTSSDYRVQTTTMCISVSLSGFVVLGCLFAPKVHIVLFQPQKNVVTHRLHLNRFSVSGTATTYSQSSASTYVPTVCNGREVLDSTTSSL
Reported mGlu3 Glu max by item:
measured property: mGlu3 Glu max (%)

compound: O=C1c2cc(CNc3ccccc3)nn2CCN1c1ccc(F)cc1 [drawing 29 X = NH]
measured property: mGlu3 Glu max
reported value: 2

compound: O=C1c2cc(CNc3cccc(F)c3)nn2CCN1c1ccc(F)cc1 [drawing 31 X = NH]
measured property: mGlu3 Glu max
reported value: 1

compound: O=C1c2cc(CNc3ccccc3F)nn2CCN1c1ccc(F)cc1 [drawing 30 X = NH]
measured property: mGlu3 Glu max
reported value: 2

compound: O=C1c2cc(CNc3ccc(F)cc3)nn2CCN1c1ccc(F)cc1 [drawing 32 X = NH]
measured property: mGlu3 Glu max
reported value: 2

====

molecular target: rat mGlu5 (Rattus norvegicus (Rat), UniProt P31424); experiment: mGlu5 Ca2+ flux assay; assay type: cell-based; settings: ratio of rat mGlu5 EC50 or IC50 to rat mGlu3 IC50

compound: C[C@H]1CN(c2ccc(F)cc2)C(=O)c2cc(CNc3ccc(F)cc3F)nn21
Fold selectivity (mGlu3 vs. mGlu5): 7.00
--
compound: C[C@H]1CN(c2ccc(F)cc2)C(=O)c2cc(CNc3ccc(F)cc3)nn21
Fold selectivity (mGlu3 vs. mGlu5): 2.38
--
compound: O=C1c2cc(CNc3ccc(OC(F)F)cc3F)nn2CCN1c1ccccc1F
Fold selectivity (mGlu3 vs. mGlu5): >38
--
compound: C[C@@H]1CN(c2ccc(F)cc2)C(=O)c2cc(CNc3cccc(OC(F)F)c3)nn21
Fold selectivity (mGlu3 vs. mGlu5): >4.9
--
compound: Cc1ccc(NCc2cc3n(n2)[C@H](C)CN(c2ccc(F)cc2)C3=O)cc1
Fold selectivity (mGlu3 vs. mGlu5): >16
--
compound: COc1ccc(N(C)Cc2cc3n(n2)CCN(c2ccc(OC(F)F)cc2)C3=O)cc1
Fold selectivity (mGlu3 vs. mGlu5): >29
--
compound: CN(Cc1cc2n(n1)CCN(c1ccc(F)cc1)C2=O)c1ccc(Br)cc1
Fold selectivity (mGlu3 vs. mGlu5): >50
--
compound: COc1ccccc1N(C)Cc1cc2n(n1)CCN(c1ccc(F)cc1)C2=O
Fold selectivity (mGlu3 vs. mGlu5): >3.1
--
compound: C[C@H]1CN(c2ccc(F)cc2)C(=O)c2cc(CNc3cc(F)ccc3F)nn21
Fold selectivity (mGlu3 vs. mGlu5): 7.33
--
compound: O=C1c2cc(CNc3ccc(OC(F)F)cc3F)nn2CCN1c1cccc(Cl)c1
Fold selectivity (mGlu3 vs. mGlu5): >21
--
compound: O=C1c2cc(CNc3cc(F)cc(F)c3)nn2CCN1c1ccc(F)cc1
Fold selectivity (mGlu3 vs. mGlu5): 8.73
--
compound: O=C1c2cc(CNc3ccc(OC(F)F)cc3F)nn2CCN1c1ccc(Cl)cc1F
Fold selectivity (mGlu3 vs. mGlu5): >3
--
compound: O=C1c2cc(CNc3ccc(OC(F)F)cc3F)nn2CCN1c1ccccn1
Fold selectivity (mGlu3 vs. mGlu5): >31
--
compound: COc1ccc(NC(C)c2cc3n(n2)CCN(c2ccc(F)cc2)C3=O)cc1 (centres unmarked)
Fold selectivity (mGlu3 vs. mGlu5): >3.8
--
compound: O=C1c2cc(CNc3cccc(Cl)n3)nn2CCN1c1ccc(F)cc1
Fold selectivity (mGlu3 vs. mGlu5): >25
--
compound: C[C@@H]1CN(c2ccc(F)cc2)C(=O)c2cc(CNc3cc(F)ccc3F)nn21
Fold selectivity (mGlu3 vs. mGlu5): >8.7
--
compound: CC(Nc1ccc(Cl)cc1)c1cc2n(n1)CCN(c1ccc(F)cc1)C2=O (centres unmarked)
Fold selectivity (mGlu3 vs. mGlu5): >19
--
compound: CCCN(Cc1cc2n(n1)CCN(c1ccc(F)c(F)c1)C2=O)c1ccc(OC)cc1
Fold selectivity (mGlu3 vs. mGlu5): 8.06
--
compound: O=C1c2cc(CNc3ccc(OC(F)F)cc3F)nn2CCN1c1ncccc1F
Fold selectivity (mGlu3 vs. mGlu5): >31
--
compound: CN(Cc1cc2n(n1)CCN(c1ccc(F)cc1)C2=O)c1ccc(C#N)cc1
Fold selectivity (mGlu3 vs. mGlu5): >8.8
--
compound: COc1ccc(N(C)Cc2cc3n(n2)CCN(c2cccc(F)c2F)C3=O)cc1
Fold selectivity (mGlu3 vs. mGlu5): >29
--
compound: O=C1c2cc(CNc3ccc(OC(F)F)cc3F)nn2CCN1c1ccc(F)c(F)c1
Fold selectivity (mGlu3 vs. mGlu5): >37
--
compound: COc1ccc(N(C)Cc2cc3n(n2)CCN(c2ccc(C)cc2)C3=O)cc1
Fold selectivity (mGlu3 vs. mGlu5): >44
--
compound: COc1ccc(N(C)Cc2cc3n(n2)CCN(c2c(F)cc(F)cc2F)C3=O)cc1
Fold selectivity (mGlu3 vs. mGlu5): >37
--
compound: C[C@H]1CN(c2ccc(F)cc2)C(=O)c2cc(CNc3ccc(CC#N)cc3)nn21
Fold selectivity (mGlu3 vs. mGlu5): >11
--
compound: Cc1ccc(NCc2cc3n(n2)CCN(c2ccc(F)cc2)C3=O)c(F)c1
Fold selectivity (mGlu3 vs. mGlu5): 5.97
--
compound: O=C1c2cc(CNc3ccc(OC(F)F)cc3F)nn2CCN1c1ccc(F)cc1
Fold selectivity (mGlu3 vs. mGlu5): >29
--
compound: COc1ccc(N(C)Cc2cc3n(n2)CCN(c2cccc(Cl)c2)C3=O)cc1
Fold selectivity (mGlu3 vs. mGlu5): >44
--
compound: C[C@@H]1CN(c2ccc(F)cc2)C(=O)c2cc(CNc3ccc(F)cc3F)nn21
Fold selectivity (mGlu3 vs. mGlu5): 7.56
--
compound: Cc1cc(NCc2cc3n(n2)CCN(c2ccc(F)cc2)C3=O)ccc1F
Fold selectivity (mGlu3 vs. mGlu5): >17
--
compound: N#Cc1cccc(NCc2cc3n(n2)CCN(c2ccc(F)cc2)C3=O)c1
Fold selectivity (mGlu3 vs. mGlu5): >24
--
compound: C[C@@H]1CN(c2ccc(F)cc2)C(=O)c2cc(CNc3cccc(Cl)c3)nn21
Fold selectivity (mGlu3 vs. mGlu5): >6.0
--
compound: COc1ccc(N(C)Cc2cc3n(n2)CCN(c2cccc(C#N)c2)C3=O)cc1
Fold selectivity (mGlu3 vs. mGlu5): >13
--
compound: COc1ccc(N(C)Cc2cc3n(n2)CCN(c2ccccn2)C3=O)cc1
Fold selectivity (mGlu3 vs. mGlu5): >10
--
compound: O=C1c2cc(CNc3ccccn3)nn2CCN1c1ccc(F)cc1
Fold selectivity (mGlu3 vs. mGlu5): >3.1

====

biological target: rat mGlu5 (Rattus norvegicus (Rat), UniProt P31424); test: mGlu5 Ca2+ flux assay; format: cell-based; details: read-out: rat mGlu5 EC50 or IC50
pEC50: −log10 of the molar value.

compound: Cc1ccc(NCc2cc3n(n2)CCN(c2ccc(F)cc2)C3=O)nc1 [Compound 159]
system tested: rat mGlu5 (Rattus norvegicus (Rat), UniProt P31424)
pEC50: < 4.52

compound: COc1ccc(N(C)Cc2cc3n(n2)CCN(c2ccc(F)c(F)c2)C3=O)cc1 [Compound 97]
system tested: rat mGlu5 (Rattus norvegicus (Rat), UniProt P31424)
pEC50: < 4.52

compound: C[C@H]1CN(c2ccc(F)cc2)C(=O)c2cc(CNc3cccc(F)c3)nn21 [Compound 47]
system tested: rat mGlu5 (Rattus norvegicus (Rat), UniProt P31424)
pEC50: 5.97

compound: C[C@@H]1CN(c2ccc(F)cc2)C(=O)c2cc(CNc3ccc(OC(F)F)cc3)nn21 [Compound 64]
system tested: rat mGlu5 (Rattus norvegicus (Rat), UniProt P31424)
pEC50: < 4.52

compound: COc1ccc(N(C)Cc2cc3n(n2)CCN(c2ccc(Cl)c(F)c2)C3=O)cc1 [Compound 136]
system tested: rat mGlu5 (Rattus norvegicus (Rat), UniProt P31424)
pEC50: < 4.52

compound: C[C@@H]1CN(c2ccc(F)cc2)C(=O)c2cc(CNc3cccc(Cl)c3)nn21 [Compound 48]
system tested: rat mGlu5 (Rattus norvegicus (Rat), UniProt P31424)
pEC50: < 5.00

compound: COc1ccc(N(C)Cc2cc3n(n2)CCN(c2ccccn2)C3=O)cc1 [Compound 117]
system tested: rat mGlu5 (Rattus norvegicus (Rat), UniProt P31424)
pEC50: < 4.52

compound: O=C1c2cc(CNc3cc(F)cc(F)c3)nn2CCN1c1ccc(F)cc1 [Compound 30]
system tested: rat mGlu5 (Rattus norvegicus (Rat), UniProt P31424)
pEC50: 5.19
